systemName: human CBS (cystathionine-β-synthase) (Homo sapiens)
Construct: GST (N); made in house; host or cells: E. coli BL21(DE3) Codon Plus
assayName: H2S production by recombinant CBS
Assay type: biochemical
testSettings: 100 μM compound; H2S production as % of control (100%)
experimentalEndpoint: activity at 100 µM (%)

# count of solved cases: 3
>  <compound>
COc1cc(OC)c2c(=O)cc(-c3ccc(-c4ccc(F)nc4)cc3)oc2c1 [Compound 33]

>  <recordedMeasurement>
107

$$$$
>  <compound>
COc1cc(OC)c2c(=O)cc(-c3ccc(OCCCN)cc3)oc2c1 [Compound 21]

>  <recordedMeasurement>
116

$$$$
>  <compound>
COc1cc(OC)c2c(=O)cc(-c3ccc(OCCN)cc3)oc2c1 [Compound 20]

>  <recordedMeasurement>
119

$$$$

[I] COc1cc(OC)c2c(=O)cc(-c3ccc(O)cc3)oc2c1 [Compound 6]
[II] COc1cc(OC)c2c(=O)cc(-c3ccc(Br)cc3)oc2c1 [Compound 31]
Ask | Between I and II , which one shows the smaller activity at 100 µM number? Identify your pick by its label.
Reply | II
(II: 69.4%, I: 130%)

###

experimentalEndpoint: melting point

melting point in this record for `COc1cc(OC)c2c(=O)cc(-c3ccc(OCCBr)cc3)oc2c1` : 202 to 203 °C

melting point in this record for `COc1cc(OC)c2c(=O)cc(-c3ccc(OCCCN)cc3)oc2c1` : 170 to 171 °C

melting point in this record for `COc1cc(OC)c2c(=O)cc(-c3ccc(OC4CCN(C)CC4)cc3)oc2c1` : 143 to 144 °C

melting point in this record for `COc1cc(OC)c2c(=O)cc(-c3ccc(NCCN(C)C)cc3)oc2c1` : 159 to 160 °C

melting point in this record for `COc1cc(OC)c2c(=O)cc(-c3ccc(OCCF)cc3)oc2c1` : 187 to 188 °C

melting point in this record for `CCN(CC)CCOc1ccc(-c2cc(=O)c3c(OC)cc(OC)cc3o2)cc1` : 116 to 117 °C

###

experimentalEndpoint: melting point

melting point in this record for `COc1cc(OC)c2c(=O)cc(-c3ccc(OCCN4CCN(C)CC4)cc3)oc2c1` : 144 to 145 °C

###

systemName: human CBS (cystathionine-β-synthase) (Homo sapiens, UniProt P35520)
Construct: GST (N); made in house; host or cells: E. coli BL21(DE3) Codon Plus
Sequence (P35520 1-551): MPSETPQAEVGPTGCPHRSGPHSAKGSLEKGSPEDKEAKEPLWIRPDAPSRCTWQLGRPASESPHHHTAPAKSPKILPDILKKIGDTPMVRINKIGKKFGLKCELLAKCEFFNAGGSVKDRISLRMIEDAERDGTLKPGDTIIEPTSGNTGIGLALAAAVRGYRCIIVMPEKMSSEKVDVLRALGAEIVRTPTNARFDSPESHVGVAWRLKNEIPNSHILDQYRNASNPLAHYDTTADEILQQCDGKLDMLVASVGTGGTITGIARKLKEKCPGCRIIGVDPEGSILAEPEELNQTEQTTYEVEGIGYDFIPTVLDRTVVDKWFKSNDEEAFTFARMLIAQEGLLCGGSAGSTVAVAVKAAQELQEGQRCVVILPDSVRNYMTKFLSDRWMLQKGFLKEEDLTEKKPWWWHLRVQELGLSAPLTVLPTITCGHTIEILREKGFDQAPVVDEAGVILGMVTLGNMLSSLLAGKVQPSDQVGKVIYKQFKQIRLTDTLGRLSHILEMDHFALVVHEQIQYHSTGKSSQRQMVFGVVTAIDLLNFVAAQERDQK
assayName: H2S production by recombinant CBS
Format: biochemical
testSettings: 100 μM compound; H2S production as % of control (100%)
Procedure: Recombinant human CBS protein expression and purification. The expression and purification of human CBS was performed as described previously (Asimakopoulou et al. 2013, Br J Pharmacol. 169(4):922-32). […] Measurement of H2S production by recombinant CBS. […] Subsequently, N,N-dimethylphenylendiamine sulfate (20 mM in 7.2 M HCl) and FeCl3 (30 mM in 1.2 M HCl) were added and the optical absorbance of the solutions was measured at 650 nm.
experimentalEndpoint: activity at 100 µM (%)

# count of solved cases: 2
>  <compound>
COC(=O)[C@@H]1CCCN1CCOc1ccc(-c2cc(=O)c3c(OC)cc(OC)cc3o2)cc1 [Compound 18]

>  <systemName>
human CBS (cystathionine-β-synthase) (Homo sapiens, UniProt P35520)

>  <experimentalEndpoint>
activity at 100 µM

>  <recordedMeasurement>
116

$$$$
>  <compound>
COc1cc(OC)c2c(=O)cc(-c3ccc(OCCN(C)C)cc3)oc2c1 [Compound 10]

>  <systemName>
human CBS (cystathionine-β-synthase) (Homo sapiens, UniProt P35520)

>  <experimentalEndpoint>
activity at 100 µM

>  <recordedMeasurement>
125

$$$$

[a] COc1cc(OC)c2c(=O)cc(-c3ccc(OCC(O)CN4CCCC4)cc3)oc2c1 (centres unmarked) [Compound 25]
[b] COc1cc(OC)c2c(=O)cc(-c3ccc(OCCN4CCCC4)cc3)oc2c1 [Compound 16]
Ask | Endpoint returns the identifier whose activity at 100 µM is numerically larger, either a or b . Identify your pick by its label.
Reply | b

###

experimentalEndpoint: melting point

# count of solved cases: 2
>  <molecularString>
COc1cc(OC)c2c(=O)cc(-c3ccc(OC4CCNCC4)cc3)oc2c1

>  <experimentalEndpoint>
melting point

>  <recordedMeasurement>
205 to 206 °C

$$$$
>  <molecularString>
COc1cc(O)c2c(=O)cc(-c3ccc(OCCN4CCCC4)cc3)oc2c1

>  <experimentalEndpoint>
melting point

>  <recordedMeasurement>
127 to 129 °C

$$$$

Proceeding to the next molecule to report its melting point.
melting point in this record for `COc1cc(OC)c2c(=O)cc(-c3ccc(OCCN4CCCC4=O)cc3)oc2c1` : 115 to 116 °C

###

The reader will find reported melting point values listed item by item below.

>  <compound>
COc1cc(OC)c2c(=O)cc(-c3ccc(OCC(O)CO)cc3)oc2c1 (stereo not shown)

>  <melting point>
203 to 204 °C

$$$$
>  <compound>
COc1cc(OC)c2c(=O)cc(-c3ccc(OCC(O)CN(C)C)cc3)oc2c1 (stereo not shown)

>  <melting point>
92 to 93 °C

$$$$
>  <compound>
O=c1cc(-c2ccc(OCCN3CCCC3)cc2)oc2cc(O)cc(O)c12

>  <melting point>
228 to 229 °C

$$$$

melting point in this record for `COC(=O)[C@@H]1CCCN1CCOc1ccc(-c2cc(=O)c3c(OC)cc(OC)cc3o2)cc1` : 121 to 122 °C

###

systemName: human CBS (cystathionine-β-synthase) (Homo sapiens, UniProt P35520)
Construct: GST (N); made in house; host or cells: E. coli BL21(DE3) Codon Plus
assayName: H2S production by recombinant CBS
Format: biochemical
testSettings: 100 μM compound; H2S production as % of control (100%)
experimentalEndpoint: activity at 100 µM (%)

# count of solved cases: 10
>  <compound>
COc1cc(OC)c2c(=O)cc(-c3ccc(OCCN4CCCCC4)cc3)oc2c1 [Compound 14]

>  <systemName>
human CBS (cystathionine-β-synthase) (Homo sapiens, UniProt P35520)

>  <recordedMeasurement>
129

$$$$
>  <compound>
COc1cc(OC)c2c(=O)cc(-c3ccc(OC4CCN(C)CC4)cc3)oc2c1 [Compound 9]

>  <systemName>
human CBS (cystathionine-β-synthase) (Homo sapiens, UniProt P35520)

>  <recordedMeasurement>
122

$$$$
>  <compound>
COc1cc(OC)c2c(=O)cc(-c3ccc(OC4CCNCC4)cc3)oc2c1 [Compound 19]

>  <systemName>
human CBS (cystathionine-β-synthase) (Homo sapiens, UniProt P35520)

>  <recordedMeasurement>
115

$$$$
>  <compound>
O=c1cc(-c2ccc(OCCN3CCCC3)cc2)oc2cc(O)cc(O)c12 [Compound 39]

>  <systemName>
human CBS (cystathionine-β-synthase) (Homo sapiens, UniProt P35520)

>  <recordedMeasurement>
99.6

$$$$
>  <compound>
COc1cc(OC)c2c(=O)cc(-c3ccc(OCCBr)cc3)oc2c1 [Compound 7]

>  <systemName>
human CBS (cystathionine-β-synthase) (Homo sapiens, UniProt P35520)

>  <recordedMeasurement>
121

$$$$
>  <compound>
COc1cc(OC)c2c(=O)cc(-c3ccc(OCCCN(C)C)cc3)oc2c1 [Compound 12]

>  <systemName>
human CBS (cystathionine-β-synthase) (Homo sapiens, UniProt P35520)

>  <recordedMeasurement>
83.9

$$$$
>  <compound>
COc1cc(OC)c2c(=O)cc(-c3ccc(OCCN4CCN(C)CC4)cc3)oc2c1 [Compound 15]

>  <systemName>
human CBS (cystathionine-β-synthase) (Homo sapiens, UniProt P35520)

>  <recordedMeasurement>
124

$$$$
>  <compound>
COc1cc(OC)c2c(=O)cc(-c3ccc(OCCN4CCOCC4)cc3)oc2c1 [Compound 11]

>  <systemName>
human CBS (cystathionine-β-synthase) (Homo sapiens, UniProt P35520)

>  <recordedMeasurement>
117

$$$$
>  <compound>
O=c1cc(-c2ccc(O)cc2)oc2cc(O)cc(O)c12 [Apigenin, 4′,5,7-trihydroxyflavone, reference compound]

>  <systemName>
human CBS (cystathionine-β-synthase) (Homo sapiens, UniProt P35520)

>  <recordedMeasurement>
80.8

$$$$
>  <compound>
COc1cc(OC)c2c(=O)cc(-c3ccc(OCCF)cc3)oc2c1 [Compound 8]

>  <systemName>
human CBS (cystathionine-β-synthase) (Homo sapiens, UniProt P35520)

>  <recordedMeasurement>
127

$$$$

[A] COc1cc(OC)c2c(=O)cc(-c3ccc(OCC(O)CN4CCCCC4)cc3)oc2c1 (stereo not shown) [Compound 24]
[B] COc1cc(OC)c2c(=O)cc(-c3ccc(OCC4CO4)cc3)oc2c1 (stereo not shown) [Compound 23]
Ask | Between A and B , which one shows the smaller activity at 100 µM number? Identify your pick by its label.
Reply | A
